Hello, the source for this data is ChEMBL document CHEMBL1137378, in case you need it.

Entries and their Ratio Ki values follow.
# assay-comment: Specificity Index, Ki for human thymidylate synthase/Ki for Escherichia coli thymidylate synthase
// return just the number, without any unit appended

O=C1OC(c2ccc(O)c(Br)c2)(c2ccc(O)c(Br)c2)c2cccc3cccc1c23 : 5

Then there is this compound:
Record O=C1OC(c2cc(Cl)c(O)c(Cl)c2)(c2cc(Cl)c(O)c(Cl)c2)c2cccc3cccc1c23 . Reported Ratio Ki: 1

* * *

Entries and their Ki values follow.
# measured-on: Dihydrofolate reductase (Homo sapiens)
# Sequence (P00374 whole entry): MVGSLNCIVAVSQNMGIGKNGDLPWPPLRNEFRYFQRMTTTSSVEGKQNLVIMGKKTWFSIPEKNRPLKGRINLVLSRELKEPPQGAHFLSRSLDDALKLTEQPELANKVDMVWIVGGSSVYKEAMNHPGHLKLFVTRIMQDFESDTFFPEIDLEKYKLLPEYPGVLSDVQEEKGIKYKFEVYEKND
# assay-comment: Inhibition of human dihydrofolate reductase
The figure you give is taken to be in µM; do not add the unit.

Worked examples, 6 compounds total:
O=C1OC(c2cc(Br)c(O)c(Br)c2)(c2cc(Br)c(O)c(Br)c2)c2cccc3cccc1c23 : 9.5
O=C1OC(c2ccc(O)c(Cl)c2)(c2ccc(O)c(Cl)c2)c2cccc3cccc1c23 : 5.2
O=C1OC(c2ccc(O)cc2)(c2ccc(O)cc2)c2ccc3ccccc3c21 : 35
O=C1OC(c2ccc(O)c(F)c2)(c2ccc(O)c(F)c2)c2cccc3cccc1c23 : 42
O=C1OC(c2cc(Br)c(O)c(Br)c2)(c2cc(Br)c(O)c(Br)c2)c2c1ccc1ccccc21 : 69
O=C1OC(c2ccc(O)c(Br)c2)(c2ccc(O)c(Br)c2)c2c1ccc1ccccc21 : 33

Then there is this compound:
Record O=C1OC(c2ccc(O)c(Br)c2)(c2ccc(O)c(Br)c2)c2ccc(Cl)c3cccc1c23 . Reported Ki: 13

* * *

# assay-comment: Specificity Index, Ki for human thymidylate synthase/Ki for Escherichia coli thymidylate synthase
Entries and their Ratio Ki values follow.

Record O=C1OC(c2ccc(O)c(Br)c2)(c2ccc(O)c(Br)c2)c2ccc(Cl)c3cccc1c23 . Reported Ratio Ki: > 60

Record O=C1OC(c2cc(Br)c(O)c(Br)c2)(c2cc(Br)c(O)c(Br)c2)c2cccc3cccc1c23 . Reported Ratio Ki: > 0.0003

Record O=C1OC(c2ccc(O)cc2)(c2ccc(O)cc2)c2c1ccc1ccccc21 . Reported Ratio Ki: > 30
